Experiment Notes: NCI Yeast Anticancer Drug Screen. Data for the cln2 rad14 strain (AID 165);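 further: 0% = growth equal to vehicle treated cultures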
Protocol Conditions: S. cerevisiae cln2 rad14 strain, at 50.0 µM (retest, dose inferred, filed as 5.0), hits give high values
This is part of a sample that, as a whole, favours compounds with a hit. Of some 79,000 tested, about 15% had one in any assay.
Listing of entries alongside the reported growth inhibition.
Observed Property: growth inhibition (%)

• COc1cccc(/C=N/C(/N=C/c2cccc(OC)c2O)c2cccc(OC)c2O)c1O = 34
• Cc1cc(C(C)(C)CC(C)(C)C)ccc1O = 98
• Nc1ccc2c(c1)C(=O)c1ccc(F)cc1-2 = 8
• CC(=O)Nc1ccc2c(c1)Cc1cc(N=C3C=CC(=O)O3)ccc1-2 = 99
• COc1c(O)c(C=O)c(Br)c(C=O)c1O = 95
• O=C1c2ccccc2C(=O)c2cc(CCl)ccc21 = 18
• O=C1C=C(Cl)C(=O)N1c1cccc(Cl)c1 = 98
• O=C(/C=C\c1cccc(C(F)(F)F)c1)c1ccccc1 = 10
